I'd appreciate it if you could supply fraction ligated values for the items below.
B1: F1*; the commonest letter at each place (parent)
chain: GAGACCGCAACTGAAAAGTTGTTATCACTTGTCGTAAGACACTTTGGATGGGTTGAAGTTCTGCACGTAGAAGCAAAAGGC

variants of: B1; assay: fraction ligated after 30 min (ligated reads / total reads); higher = more ligase activity; settings: with F1*sub RNA substrate (template-directed ligation), 42 °C
Answers are plain numbers.

// worked examples, fraction ligated included
-- ask Give the reported fraction ligated for this variant. T32G G38C
-- reply 0.798

-- ask Answer with the recorded fraction ligated of A36C A56T only.
-- reply 0.804

-- ask State its fraction ligated: G34T G55C
-- reply 0.796

-- ask Recall and state the measured fraction ligated for C42G T43C .
-- reply 0.836

-- ask // fetch fraction ligated given entry T45A A57G
-- reply 0.752

Report fraction ligated for every entry below.
1. G31A G50T
2. A48G A57T
3. A41C C42G

-- reply
0.195
0.795
0.826

Quick request: fraction ligated for each listed item, please.
1. G34T T43A
2. G46T A57C
3. A36G G55A
4. T29C A36G
5. A37T G38T
6. A39C A56T
7. T30G A48G

-- reply
1. 0.827
2. 0.726
3. 0.867
4. 0.841
5. 0.838
6. 0.771
7. 0.791

List the reported fraction ligated of each variant below.
1. G38C A39C
2. C28G G38A

-- reply
1: 0.752; 2: 0.792
